assay: Chemical stability of the compound in HEPES buffer assessed as compound remaining at 10 mg at pH 7.4 measured at 5 hrs by HPLC method; format: physicochemical; conditions: read-out: Stability
Items are presented alongside their recorded remaining at 5 h.
# unit: % | format: bare number

Some entries whose results are on file:
- sample-smiles: "NS(=O)(=O)c1ccc(CC/N=C\\c2ccccc2)cc1"
  remaining at 5 h / %: 89
- sample-smiles: "NS(=O)(=O)c1ccc(CCNCc2ccccc2)cc1"
  remaining at 5 h / %: 100
- sample-smiles: "COc1ccc(CNCCc2ccc(S(N)(=O)=O)cc2)cc1"
  remaining at 5 h / %: 100

Next:
Report measured remaining at 5 h; entry is COc1ccc(/C=N\CCc2ccc(S(N)(=O)=O)cc2)cc1
72
